In this section we review reported EGFR(h) % activity values for a set of sequences.
- assay_system: EGFR(h) (Homo sapiens)
- assay_remarks: Kinase Profiling Assay
- Format: biochemical
- reported_conditions: 100 μM peptide
- Procedure: Every kinase activity measurement was conducted in duplicate. In addition to determining the IC50 of the compound, the specificity of MK2 inhibitory peptides was assessed by examining activities of all 266 human kinases available for testing in the Millipore kinase profiling service (Table 1).
State the answer as a number, implicitly in %.

These solved cases illustrate the format of a correct answer.
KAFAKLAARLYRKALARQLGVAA [MMI-0400] | 16
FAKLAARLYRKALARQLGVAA [MMI-0300] | 21
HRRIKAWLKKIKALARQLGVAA (Mammalian) [MMI-0500] | −1

Now consider the entry below.
Requested field: EGFR(h) % activity. Item: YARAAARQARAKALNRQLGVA (Mammalian) [MMI-0200]
83
